Values from PubChem BioAssay AID1159580

experimental.details: chemical genetic growth profiling, strain panel (AID 1159580);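 further: tested at 20 µM; growth read once vehicle control cultures reached saturation at 30 °C; 1 = growth at the plate median or of vehicle wells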
test.conditions: S. cerevisiae deletion strains, growth OD, locus YML032C, strain rad52
The whole screen tested about 5,500 compounds, of which about 2,000 (36%) were called active. Another 18% or so got no clear call; they are omitted. No stated cut-off is given here; in the data, active means normalized growth mostly below about 0.91 (no sharp cut-off); inconclusive means no clear call, values can overlap the other calls; inactive means mostly above about 0.92. Some of the results follow.
Lab note: assign the record to one of y for active, n for inactive

Study these solved cases before continuing.
CC[N+]1(C)CCCC(OC(=O)C(O)(c2ccccc2)c2ccccc2)C1 (stereo not drawn) :: n
CN(C)CC/C=C1/c2ccccc2COc2ccccc21 :: n
CC(=O)O.CC(=O)O.[Cd] :: y

Ask | Dear all, I need the recorded test outcome for CN(C)CCC=C1c2ccccc2C=Cc2ccccc21 , thank you.
Reply | n

Ask | Dear all, I need the recorded test outcome for O=C(O)/C=C(\CC(=O)O)C(=O)O , thank you.
Reply | n

Ask | Dear all, I need the recorded test outcome for NCC(=O)CCC(=O)O , thank you.
Reply | n

Ask | Dear all, I need the recorded test outcome for O=C(/C=C/c1ccccc1)c1ccc(O)cc1 , thank you.
Reply | y

Ask | Dear all, I need the recorded test outcome for CC1(C)O[C@@H]2CC3C4CCC5=CC(=O)C=C[C@]5(C)[C@@]4(F)[C@@H](O)C[C@]3(C)[C@]2(C(=O)CO)O1 (stereo partly drawn) , thank you.
Reply | n

Ask | Dear all, I need the recorded test outcome for COc1cc([C@@H]2c3cc4c(cc3[C@H](O)[C@H]3COC(=O)[C@@H]23)OCO4)cc(OC)c1OC , thank you.
Reply | n

Ask | Dear all, I need the recorded test outcome for CC(=O)CC(c1ccccc1)c1c(O)c2ccccc2oc1=O (stereo not drawn) , thank you.
Reply | n

Ask | Dear all, I need the recorded test outcome for CC1NC(=O)NC1=O (stereo not drawn) , thank you.
Reply | n

Ask | Dear all, I need the recorded test outcome for Cc1coc2ccccc2c1=O , thank you.
Reply | n

Ask | Dear all, I need the recorded test outcome for CNCCC=C1c2ccccc2CCc2ccccc21 , thank you.
Reply | n

----------
Listing: normalized growth of selected molecules
experimental.details: chemical genetic growth profiling, strain panel (AID 1159580);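 further: tested at 20 µM; growth read once vehicle control cultures reached saturation at 30 °C; 1 = growth at the plate median or of vehicle wells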
test.conditions: S. cerevisiae deletion strains, growth OD, locus YNR049C, strain mso1, stronger effect = lower value
The campaign covered roughly 5,500 compounds. About 2,000 (36%) were called active. About 18% were inconclusive and are not listed. This is one part of the list.
Please reply with the value in numeric form only.

These solved cases illustrate the format of a correct answer.
CN1CCN2c3ccccc3Cc3ccccc3C2C1 (stereo not drawn) :: 1
FC(F)(F)C(Cl)Br (stereo not drawn) :: 1.02

Ask | Look at this molecule and give its reported normalized growth. CC(=O)O.CC(=O)O.[Cd]
Reply | 0.819

----------
experimental.details: chemical genetic growth profiling, strain panel (AID 1159580);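 further: tested at 20 µM; growth read once vehicle control cultures reached saturation at 30 °C; 1 = growth at the plate median or of vehicle wells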
test.conditions: S. cerevisiae deletion strains, growth OD, locus YBR023C, strain chs3, stronger effect = lower value
Hit rate of the full screen: of about 5,500 compounds, about 2,000 (36%) were called active. Roughly 18% stayed inconclusive and do not appear here. Some of the results follow.
parameter: normalized growth
Please reply with the value in numeric form only.

These solved cases illustrate the format of a correct answer.
COc1cc2cc[n+]3cc4c(OC)c(OC)ccc4cc3c2cc1OC :: 0.977
COc1cc2c(cc1OC)-c1cc3ccc(OC)c(OC)c3c[n+]1CC2 :: 0.983
C=C1C2CC[C@@]3(C)[C@H](c4ccoc4)OC(=O)C[C@]13O[C@H]1CC(=O)C(C)(C)[C@H](C(O)C(=O)OC)[C@@]21C (stereo not given in full) :: 1.01
COc1c2c(cc3c1OCO3)CC[N+](C)=C2 :: 1.01

Now turn to the next compound.
Ask | Look at this compound and give its reported normalized growth. CN(C)C(=O)Oc1cc(OC(=O)N(C)C)cc(C(O)CNC(C)(C)C)c1 (stereo not given)
Reply | 1.02
